Experiment: Pharmacokinetic evaluation, plasma and brain concentrations
Type: in vivo, ICR mice
Conditions: male, ICR, mouse, brain, po, 10 mg/kg, PO 10 mg/kg, 8 hr; read-out: Brain tissue concentration, individual mice

| COMPOUND | UNITS_SYMBOL | concentration at 8 h |
| --- | --- | --- |
| O=C1C=C(OCc2ccc(F)cc2)[C@H](Cc2ccccc2)N1 [Compound 50561] | ng/g | 7.52 |

* * *

Experiment: Pharmacokinetic evaluation, plasma and brain concentrations
Assay type: in vivo, ICR mice
Settings: male, ICR, mouse, brain, iv, 1 mg/kg, IV 1 mg/kg, 1 hr; read-out: Brain tissue concentration, individual mice

| MOLECULE | concentration at 1 h, ng/g |
| --- | --- |
| O=C1C=C(OCc2ccc(F)cc2)[C@H](Cc2ccccc2)N1 [Compound 50561] | 42.6 |

* * *

Molecular target: hERG potassium channel (Homo sapiens)
Assay: hERG current, whole-cell patch clamp on HEK-hERG stable cell line
Type: cell-based
Conditions: human
pIC50: −log10 of the molar value.
RECORDED_ENDPOINT: pIC50

| CHEMICAL_SMILES | REPORTED |
| --- | --- |
| O=C1C=C(OCc2ccc(F)cc2)[C@H](Cc2ccccc2)N1 | 4.57 |

* * *

Experiment: Pharmacokinetic evaluation, plasma and brain concentrations
Type: in vivo, ICR mice
Conditions: male, ICR, mouse, plasma, iv, 1 mg/kg, IV 1 mg/kg, 1 hr; read-out: Blood concentration, Mean
Description: Distribution of a medicament in the body is one of the important indicators to determine the dose and efficacy of the medicament. Thus, excellent candidate compounds should have good pharmacokinetic characteristics. […] In this experiment, compound 50561 was administered to mice […] or by gavage, and the concentrations of the compound in blood and brain were measured at specific time points to determine the pharmacokinetic parameters. […]
RECORDED_ENDPOINT: concentration at 1 h (ng/mL)

| CHEMICAL_SMILES | REPORTED |
| --- | --- |
| O=C1C=C(OCc2ccc(F)cc2)[C@H](Cc2ccccc2)N1 | 15.3 |

* * *

Biological target: hERG potassium channel (Homo sapiens, UniProt Q12809)
Sequence (Q12809 whole entry): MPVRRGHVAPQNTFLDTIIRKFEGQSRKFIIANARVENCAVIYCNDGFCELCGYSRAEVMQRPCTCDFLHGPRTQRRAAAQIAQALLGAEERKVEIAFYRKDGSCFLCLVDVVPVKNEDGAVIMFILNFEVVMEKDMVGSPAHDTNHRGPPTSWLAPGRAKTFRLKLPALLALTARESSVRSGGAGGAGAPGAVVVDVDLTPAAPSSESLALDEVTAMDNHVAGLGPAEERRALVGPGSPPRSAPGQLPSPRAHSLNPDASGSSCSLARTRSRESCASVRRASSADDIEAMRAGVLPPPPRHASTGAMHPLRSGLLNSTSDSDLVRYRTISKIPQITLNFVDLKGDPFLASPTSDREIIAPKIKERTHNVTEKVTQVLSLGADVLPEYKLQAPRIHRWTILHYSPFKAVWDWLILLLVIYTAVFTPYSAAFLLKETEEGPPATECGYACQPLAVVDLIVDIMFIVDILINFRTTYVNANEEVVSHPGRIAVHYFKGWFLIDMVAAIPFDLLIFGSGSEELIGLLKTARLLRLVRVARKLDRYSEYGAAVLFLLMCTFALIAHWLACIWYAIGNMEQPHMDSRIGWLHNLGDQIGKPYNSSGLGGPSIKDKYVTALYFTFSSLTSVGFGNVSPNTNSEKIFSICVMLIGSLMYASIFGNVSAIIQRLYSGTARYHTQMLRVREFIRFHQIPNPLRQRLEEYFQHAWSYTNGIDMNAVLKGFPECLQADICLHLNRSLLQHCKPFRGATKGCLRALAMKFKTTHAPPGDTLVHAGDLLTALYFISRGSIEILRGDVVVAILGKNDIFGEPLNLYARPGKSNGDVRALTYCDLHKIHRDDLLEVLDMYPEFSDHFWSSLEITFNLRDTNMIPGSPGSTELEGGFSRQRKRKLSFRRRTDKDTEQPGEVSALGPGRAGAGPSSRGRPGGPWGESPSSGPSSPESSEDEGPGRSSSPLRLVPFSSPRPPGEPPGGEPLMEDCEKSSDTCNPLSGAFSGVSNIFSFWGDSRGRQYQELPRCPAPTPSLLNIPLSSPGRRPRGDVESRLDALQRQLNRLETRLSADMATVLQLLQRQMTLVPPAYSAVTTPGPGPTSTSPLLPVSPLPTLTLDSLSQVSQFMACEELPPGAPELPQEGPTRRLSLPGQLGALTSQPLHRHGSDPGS
Test: hERG current, whole-cell patch clamp on HEK-hERG stable cell line
Type: cell-based
Conditions: human, Inhibitory effect, Mean value ± standard deviation
RECORDED_ENDPOINT: inhibition at 10 µM (%)

| CHEMICAL_SMILES | RECORDED_ENDPOINT | REPORTED |
| --- | --- | --- |
| O=C1C=C(OCc2ccc(F)cc2)[C@H](Cc2ccccc2)N1 | inhibition at 10 µM | 25.7 |

* * *

Assay: Pharmacokinetic evaluation, plasma and brain concentrations
Format: in vivo, ICR mice
Conditions: male, ICR, mouse, plasma, po, 10 mg/kg, PO 10 mg/kg, 6 hr; read-out: Blood concentration, Mean

| CHEMICAL_SMILES | UNITS_SYMBOL | concentration at 6 h |
| --- | --- | --- |
| O=C1C=C(OCc2ccc(F)cc2)[C@H](Cc2ccccc2)N1 | ng/mL | 7.16 |

* * *

Target: hERG potassium channel (Homo sapiens, UniProt Q12809)
Assay: hERG current, whole-cell patch clamp on HEK-hERG stable cell line
Format: cell-based
Conditions: human, Inhibitory effect, Mean value ± standard deviation
RECORDED_ENDPOINT: inhibition at 1 µM (%)

| MOLECULE | TESTED_ON | RECORDED_ENDPOINT | REPORTED |
| --- | --- | --- | --- |
| O=C1C=C(OCc2ccc(F)cc2)[C@H](Cc2ccccc2)N1 [Compound 50561] | hERG potassium channel (Homo sapiens, UniProt Q12809) | inhibition at 1 µM | 3.43 |

* * *

Test: Pharmacokinetic evaluation, plasma and brain concentrations
Type: in vivo, ICR mice
Conditions: male, ICR, mouse, plasma, po, 10 mg/kg, PO 10 mg/kg, 0.5 hr; read-out: Blood concentration, individual mice

| COMPOUND | concentration at 0.5 h / ng/mL |
| --- | --- |
| O=C1C=C(OCc2ccc(F)cc2)[C@H](Cc2ccccc2)N1 [Compound 50561] | 1020 |

* * *

Experiment: Pharmacokinetic evaluation, plasma and brain concentrations
Assay type: in vivo, ICR mice
Conditions: male, ICR, mouse, brain, po, 10 mg/kg, PO 10 mg/kg, 4 hr; read-out: Brain tissue concentration, Mean

| COMPOUND | concentration at 4 h (ng/g) |
| --- | --- |
| O=C1C=C(OCc2ccc(F)cc2)[C@H](Cc2ccccc2)N1 [Compound 50561] | 41.7 |

* * *

Biological target: hERG potassium channel (Homo sapiens)
Assay: hERG current, whole-cell patch clamp on HEK-hERG stable cell line
Format: cell-based
Details: human, Inhibitory effect, Mean value ± standard deviation

| COMPOUND | inhibition at 3 µM, % |
| --- | --- |
| O=C1C=C(OCc2ccc(F)cc2)[C@H](Cc2ccccc2)N1 [Compound 50561] | 11.3 |

* * *

Experiment: Pharmacokinetic evaluation, plasma and brain concentrations
Format: in vivo, ICR mice
Conditions: male, ICR, mouse, brain, iv, 1 mg/kg, IV 1 mg/kg, 0.25 hr; read-out: Brain tissue concentration, individual mice
RECORDED_ENDPOINT: concentration at 0.25 h (ng/g)

| COMPOUND | REPORTED |
| --- | --- |
| O=C1C=C(OCc2ccc(F)cc2)[C@H](Cc2ccccc2)N1 [Compound 50561] | 462 |

* * *

Biological target: hERG potassium channel (Homo sapiens)
Assay: hERG current, whole-cell patch clamp on HEK-hERG stable cell line
Format: cell-based
Settings: human, Inhibitory effect, Mean value ± standard deviation

| MOLECULE | inhibition at 30 µM [%] |
| --- | --- |
| O=C1C=C(OCc2ccc(F)cc2)[C@H](Cc2ccccc2)N1 [Compound 50561] | 53.6 |

* * *

Test: Pharmacokinetic evaluation, plasma and brain concentrations
Assay type: in vivo, ICR mice
Details: male, ICR, mouse, plasma, po, 10 mg/kg, PO 10 mg/kg, 8 hr; read-out: Blood concentration, Mean

| COMPOUND | concentration at 8 h, ng/mL |
| --- | --- |
| O=C1C=C(OCc2ccc(F)cc2)[C@H](Cc2ccccc2)N1 [Compound 50561] | 3.43 |

* * *

Test: Pharmacokinetic evaluation, plasma and brain concentrations
Format: in vivo, ICR mice
Conditions: male, ICR, mouse, brain, po, 10 mg/kg, PO 10 mg/kg, 0.25 hr; read-out: Brain tissue concentration, Mean

| CHEMICAL_SMILES | concentration at 0.25 h |
| --- | --- |
| O=C1C=C(OCc2ccc(F)cc2)[C@H](Cc2ccccc2)N1 | 1220 ng/g |

* * *

Assay: Pharmacokinetic evaluation, plasma and brain concentrations
Format: in vivo, ICR mice
Conditions: male, ICR, mouse, brain, po, 10 mg/kg, PO 10 mg/kg, 1 hr; read-out: Brain tissue concentration, Mean
RECORDED_ENDPOINT: concentration at 1 h (ng/g)

| CHEMICAL_SMILES | RECORDED_ENDPOINT | REPORTED |
| --- | --- | --- |
| O=C1C=C(OCc2ccc(F)cc2)[C@H](Cc2ccccc2)N1 | concentration at 1 h | 1120 |

* * *

Test: Pharmacokinetic evaluation, plasma and brain concentrations
Type: in vivo, ICR mice
Conditions: male, ICR, mouse, brain, po, 10 mg/kg, PO 10 mg/kg, 6 hr; read-out: Brain tissue concentration, Mean

| CHEMICAL_SMILES | concentration at 6 h |
| --- | --- |
| O=C1C=C(OCc2ccc(F)cc2)[C@H](Cc2ccccc2)N1 | 18.3 ng/g |

* * *

Assay: Pharmacokinetic evaluation, plasma and brain concentrations
Type: in vivo, ICR mice
Conditions: male, ICR, mouse, plasma, iv, 1 mg/kg, IV 1 mg/kg, 0.5 hr; read-out: Blood concentration, Mean

| CHEMICAL_SMILES | concentration at 0.5 h / ng/mL |
| --- | --- |
| O=C1C=C(OCc2ccc(F)cc2)[C@H](Cc2ccccc2)N1 | 82 |
